Values were extracted from ChEMBL document CHEMBL4330069.

# Tested on: Staphylococcus aureus
# assay.text: Antibacterial activity against multidrug-resistant Staphylococcus aureus isolate 2728 by broth microdilution assay
# Type: functional
measurement.type: log10 MIC (log10 of the value in µg/mL)

> print(dat)
                                   compound  measurement.type  measured.number
1  COc1cccc(OC)c1C(=O)N[C@@H]1C(=O)N2[C@@H]1SC(C)(C)[C@@H]2C(=O)O [METHICILLIN]         log10 MIC             1.51
2  CO/N=C(\C(=O)N[C@@H]1C(=O)N2C(C(=O)O)=C(COC(N)=O)CS[C@H]12)c1ccco1 [CEFUROXIME]         log10 MIC             1.20
3  C[C@@H](O)[C@H]1C(=O)N2C(C(=O)O)=C(S[C@@H]3CN[C@H](C(=O)N(C)C)C3)[C@H](C)[C@H]12 [MEROPENEM]         log10 MIC             0.30
4  CC1(C)S[C@@H]2[C@H](NC(=O)[C@H](N)c3ccc(O)cc3)C(=O)N2[C@H]1C(=O)O [AMOXICILLIN]         log10 MIC             2.71
5            CCCCCCCCCNc1ccc(F)c(C(N)=O)c1F         log10 MIC             2.11
6  Cc1onc(-c2ccccc2Cl)c1C(=O)N[C@@H]1C(=O)N2[C@@H]1SC(C)(C)[C@@H]2C(=O)O [CLOXACILLIN]         log10 MIC             0.00

###

# Tested on: Staphylococcus aureus
# assay.text: Antibacterial activity against multidrug-resistant Staphylococcus aureus isolate 1449 by broth microdilution assay
# Format: functional
The entries below come with measured MIC values attached.
measurement.type: MIC (µg/mL)

> print(dat)
                                   compound  measurement.type  measured.number
1  Cc1onc(-c2ccccc2Cl)c1C(=O)N[C@@H]1C(=O)N2[C@@H]1SC(C)(C)[C@@H]2C(=O)O [CLOXACILLIN]               MIC                1
2  C[C@@H](O)[C@H]1C(=O)N2C(C(=O)O)=C(S[C@@H]3CN[C@H](C(=O)N(C)C)C3)[C@H](C)[C@H]12 [MEROPENEM]               MIC             0.13
3  CO/N=C(\C(=O)N[C@@H]1C(=O)N2C(C(=O)O)=C(COC(N)=O)CS[C@H]12)c1ccco1 [CEFUROXIME]               MIC                2
4  CC1(C)S[C@@H]2[C@H](NC(=O)[C@H](N)c3ccc(O)cc3)C(=O)N2[C@H]1C(=O)O [AMOXICILLIN]               MIC                2
5            CCCCCCCCCNc1ccc(F)c(C(N)=O)c1F               MIC                4
6  COc1cccc(OC)c1C(=O)N[C@@H]1C(=O)N2[C@@H]1SC(C)(C)[C@@H]2C(=O)O [METHICILLIN]               MIC                8
